The entries below are paired with their reported GI50.
tested on: HL-60; test: Antiproliferative activity against human HL60 cells by trypan blue assay; format: functional

Record Smiles	GI50 / µM
C=C1CC[C@@H]2[C@](C)(CO)[C@H](O)CC[C@@]2(C)[C@@H]1CC/C(=C/CO)C(=O)O	22.4
C=C1CC[C@@H]2[C@](C)(CO)[C@H](O)CC[C@@]2(C)[C@@H]1C[C@H](O)[C@@H]1C(=O)OC[C@H]1O	24.4
C=C1CC[C@H]2[C@@](C)(CCC(=O)[C@@]2(C)CO)[C@@H]1/C=C/C1=CCOC1=O	19.2
C=C1CC[C@@H]2[C@](C)(CO)CCC[C@@]2(C)[C@@H]1CC/C(=C/CO)CO	20.4

* * *

system: HL-60; experiment: Antiproliferative activity against human HL60 cells by trypan blue assay; assay type: functional
The entries below are paired with their reported log10 GI50.
Measured Quantity: log10 GI50 (log10 of the value in µM)

Compound	log10 GI50
COc1cccc2c1C(=O)c1c(O)c3c(c(O)c1C2=O)C[C@@](O)(C(=O)CO)C[C@@H]3O[C@H]1C[C@H](N)[C@H](O)[C@H](C)O1 [DOXORUBICIN]	-1.74
C=C1CC[C@@H]2[C@](C)(CO)[C@H](O)CC[C@@]2(C)[C@@H]1C[C@@H](O)[C@H]1C(=O)OC[C@H]1O	1.42
C=C1CC[C@@H]2[C@](C)(CO)[C@H](O)CC[C@@]2(C)[C@@H]1CCC1=CCOC1=O [DEOXYANDROGRAPHOLIDE]	1.41
C=C1CC[C@@H]2[C@](C)(CO)[C@H](O)CC[C@@]2(C)[C@@H]1C/C=C1/C(=O)OC[C@H]1O [ANDROGRAPHOLIDE]	0.97
C=C1CC[C@@H]2[C@](C)(CO)[C@H](O)CC[C@@]2(C)[C@@H]1/C=C/C1=CC(OC)OC1=O (stereo not given in full)	1.42
C=C1CC[C@@H]2[C@](C)(CO)[C@H](O)CC[C@@]2(C)[C@@H]1/C=C/C(=O)O	1.46
C=C1CC[C@H]2[C@@](C)(CCC(=O)[C@@]2(C)CO)[C@@H]1CCC1=CCOC1=O	1.36
C=C1CC[C@@H]2[C@](C)(CO)[C@H](O)CC[C@@]2(C)[C@@H]1CCO	1.40
C=C1CC[C@@H]2[C@](C)(CO[C@@H]3O[C@H](CO)[C@@H](O)[C@H](O)[C@H]3O)[C@H](O)CC[C@@]2(C)[C@@H]1C/C=C1/C(=O)OC[C@H]1O [ANDROGRAPHISIDE]	1.46
C=C1CC[C@@H]2[C@](C)(CO)CCC[C@@]2(C)[C@@H]1CCC1=CCOC1=O [ANDROGRAPANIN]	1.30
C=C1CC[C@@H]2[C@](C)(CO[C@@H]3O[C@H](CO)[C@@H](O)[C@H](O)[C@H]3O)CCC[C@@]2(C)[C@@H]1CCC1=CCOC1=O [NEOANDROGRAPHOLIDE]	1.43
C=C1[C@@H](CCC2=CCOC2=O)[C@]2(C)CC[C@@H](O)[C@@](C)(CO)[C@H]2C[C@@H]1O	1.40
C=C1[C@H](O)C[C@@H]2[C@](C)(CO)[C@H](O)CC[C@@]2(C)[C@@H]1CCC1=CCOC1=O	1.35
C=C1CC[C@@H]2[C@](C)(CO)[C@H](O)CC[C@@]2(C)[C@@H]1/C=C/C1=CCOC1=O	1.41
C=C1CC[C@@H]2[C@](C)(CO)[C@H](O)CC[C@@]2(C)[C@@H]1C/C=C1\C(=O)OC[C@H]1O	0.80
